molecular target: DN quality control product recombinant protein (a recombinant antigen produced by the company itself) (dengue virus); test: AMO sensor, antibody on sensor, antigen in solution
Consider the following binders; for each one, report its pKd.
Give bare numbers, as −log10 of the molar value.

# BINDER, pKd
measured = [
    ("WT 1-7 (antibody, V domains shown) VH: QVQLQQSGAELVRPGTSVKISCKASGYSFTEYWIGWVKQRPGHGLEWIGDMVPGDLYINYQEKFKGKATLTADTSSNTAYMQLSSLTSEDSAVYFCTNFITVGGVDYWGRGTSLTVSS VL: DVVMTQTPLTLSVTIGQPASISCKSSQSLLESDGKTYLNWLLQRPGQSPKRLIYLVTKIDSGVPDRFTGSGSVTDFTLKISRVESEDLGVYYCWYGTHFAHTFGAGTKLEVKR", 7.18),
    ("WT 1-20 (antibody, V domains shown) VH: QVQLQQSGAELVRPGTSVKISCKASGYSFTDYWIGWVKQRPGHGLEWIGDMVPGDIYINYQEKFKGKATLTADTSSNTAYMQLSSLTSEDSAVYFCTNFITVGGLDYWGRGTSLTVSS VL: DVVMTQTPLTLSVTIGQPASISCKSSQSLLESDGRTYLNWLLQRPGQSPKRLIYLVTKLDSGVPDRFTGSGSVTDFTLKISRVESEDLGVYYCWWGTHFAHTFGAGTKLEVKR", 7.34),
]

Below: the item to evaluate.
Per the records, this binder ( WT 1-4 (antibody, V domains shown) VH: QVQLQQSGAELVRPGTSVKISCKASGYSFTDYWIGWVKQRPGHGLEWIGDMVPGDIYINYQEKFKGKATLTADTSSNTAYMQLSSLTSEDSAVYFCTNFLTVGGVDYWGRGTSLTVSS VL: DVVMTQTPLTLSVTIGQPASISCKSSQSLLESDGRTYLNWLLQRPGQSPKRLIYLVTKIDSGVPDRFTGSGSVTDFTLKISRVESEDLGVYYCWYGTHFAHTFGAGTKLEVKR ) has pKd equal to 7.55
